# System: 323965-272-R-J2-PDC complex spheroid viability;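 further: spheroids exposed to agents for seven days before readout; percent of DMSO vehicle control wells so 100% = untreated growth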
# assay_details: Anticancer human tumor 323965-272-R-J2-PDC patient-derived pancreatic carcinoma cell line growth inhibition [CLK]
# recorded_conditions: second compound 0.316 µM; first compound 3.16 µM; active compounds read low
result_type: viability, T/C (%)
Just the number in %, nothing appended.

Sample records with viability, T/C:
C=C(F)C(=O)N1CCN(c2nc(OCC3CCCN3C)nc3c2CCN(c2cccc4cccc(Cl)c24)C3)CC1CC#N (stereo not drawn) + CNC(=O)c1ccc(Nc2nc(OC3CCCC3)c3c(-c4ccc5nc(C)oc5c4)c[nH]c3n2)c(OC)c1 | 45.2
CC(Nc1ccc2c(c1)OCCn1cc(N3C(=O)OCC3C(F)F)nc1-2)C(N)=O (stereo not drawn) + CN1CCN(c2cc(C(=O)Nc3cc4cc(-c5cnn(C)c5)ccc4cn3)ccn2)CC1 | 19.2

Here's the next entry for you.
Would you mind telling me what viability, T/C value was observed for Nc1ccn(C2OC(CO)C(O)C2(F)F)c(=O)n1 (stereo not drawn) + CN1CCN(c2cc(C(=O)Nc3cc4cc(-c5cnn(C)c5)ccc4cn3)ccn2)CC1 ?
15.2
